Target: Thyrotropin-releasing hormone receptor (Homo sapiens)
Experiment: qHTS assay to identify small molecule antagonists of the thyrotropin-releasing hormone receptor (TRHR) signaling pathway (AID 1346877); note: % is set by controls: 0 for no effect and ±100 for the full control effect
Settings: TRHR-HEK293, TRH-induced calcium fluorescence, antagonist mode; series mostly up to 51.3 µM
Description: National Center for Advancing Translational Sciences [NCATS] NIH Chemical Genomics Center [NCGC] U.S. Environmental Protection Agency [EPA] National Institutes of Environmental Health Sciences [NIEHS] National Toxicology Program [NTP] […] The TRHR-Hek293 cells were dispensed at 1500cells/4uL/well in 1536-well black-clear bottom plates using a Multidrop dispenser. […] The fluorescence intensity in the plates was measured using FDSS 7000EX kinetic plate reader for 3 min at 1 sec intervals. […]
Active and inactive are the calls of the source. Calls come from the whole dose curve; as a rule, active = well fitted inhibition curve with a large enough effect in the repeat runs (not every such curve was filed as active); inconclusive = weak or mixed curves; inactive = flat fitted curve, though single readings scatter.
METRIC: activity, negative = inhibition

- CC(C)COCC(CN(Cc1ccccc1)c1ccccc1)N1CCCC1 (stereo not drawn): inactive
- COC(=O)[C@H]1[C@H]2C[C@@H]3c4[nH]c5cc(OC)ccc5c4CCN3C[C@H]2C[C@@H](OC(=O)/C=C/c2ccc(O)c(OC)c2)[C@@H]1OC: inactive
- CNC(=O)c1cnn(-c2nc(N)c3ncn([C@@H]4O[C@H](CO)[C@@H](O)[C@H]4O)c3n2)c1: inactive

* * *

Assay: qHTS assay to identify small molecule agonists of the constitutive androstane receptor (CAR) signaling pathway - cell viability counter screen (AID 1224836); note: nearly all actives have a fitted effect of over 45% in size
Details: HepG2-CYP2B6-hCAR viability, CellTiter-Fluor, 23 h, PK11195 added to every well; series mostly up to 92.4 µM
Inconclusive results are not listed. Activity calls are given as the source filed them. Calls come from the whole dose curve; as a rule, active = well fitted cell-killing curve with a large enough effect in the repeat runs; inconclusive = weak or mixed curves, or effect the other way; inactive = flat fitted curve, though single readings scatter.
Outcome codes: active, inactive

• O=C1c2ccccc2C(=O)c2c(O)c(O)cc(O)c21 = inactive
• Cc1ccc(Cl)c(Nc2ccccc2C(=O)O)c1Cl = inactive
• Cc1cc2c(OCC(CNC(C)(C)C)OC(=O)c3ccccc3)cccc2[nH]1 (configuration not stated) = inactive
• C1COC1 = inactive
• CCCCCCCCCCCCCCN(CCO)CCO = active
• O[C@@H]1CO[C@H]2[C@@H]1OC[C@@H]2O = inactive
• Cc1cc(O)c(C)c(C)c1O = inactive

* * *

Experiment: qHTS assay to identify small molecule agonists of the NFkB signaling pathway (AID 1159509); note: % is set by controls: 0 for no effect and ±100 for the full control effect
Conditions: NFkB-bla ME-180 cells, beta-lactamase FRET ratio, 5 h; series mostly up to 61 µM
Description: National Center for Advancing Translational Sciences [NCATS] NIH Chemical Genomics Center [NCGC] U.S. Environmental Protection Agency [EPA] National Institutes of Environmental Health Sciences [NIEHS] National Toxicology Program [NTP] U.S. Food and Drug Administration [FDA] Transcription factors and their stimulated target gene expression play pivotal roles across many cellular processes including responses to environmental stimuli. […]
Records with an inconclusive call do not appear. Active and inactive are the calls of the source. The call rests on the fitted dose curve; in most records, active means well fitted curve in the direction sought with a large enough effect in the signal ratio in the repeat runs (not every such curve was filed as active); inconclusive means weak or mixed curves, or a change in a side signal; inactive means no such curve, though single readings can be large or run the other way; the % refers to the signal ratio.
METRIC: outcome

- OC(CCN1CCCC1)(c1ccccc1)C1CCCCC1 (centres undefined): inactive
- C/C=C/C=C/C=O: inactive
- CC(CO)CO: inactive
- O=C1c2ccccc2C(=O)N1CCc1noc(-c2ccc(CN3CCCCCC3)s2)n1: inactive
- O[C@@H]1CO[C@H]2[C@@H]1OC[C@@H]2O: inactive
- Oc1ccc(Cl)c2cccnc12: inactive
- O=C(Nc1cccc2c(=O)cc(-c3nn[nH]n3)oc12)c1ccc(OCCCCc2ccccc2)cc1: inactive
- CN1CCCN=C1COC(=O)C(O)(c1ccccc1)C1CCCCC1 (centres undefined): inactive
- CC1(CN2CCC(n3c(=O)[nH]c4ccccc43)CC2)OCc2ccccc2-n2cccc21 (centres undefined): inactive
- O=C1Cc2cc(Cl)ccc2N1: inactive
- CCCCC(CC)COP(=O)(O)O (centres undefined): inactive
- COc1ccc(OC(=O)N(CC(=O)O)Cc2ccc(OCCc3nc(-c4ccccc4)oc3C)cc2)cc1: inactive
- CC(=O)Nc1ccc(C)cc1C: inactive
- C=CC(=O)OCC1CC2CC1C1CCC(COC(=O)C=C)C21 (centres undefined): inactive
- CC(C)c1nc(CN(C)C(=O)N[C@H](C(=O)N[C@@H](Cc2ccccc2)C[C@H](O)[C@H](Cc2ccccc2)NC(=O)OCc2cncs2)C(C)C)cs1: inactive
- Cc1ccccc1N=C(N)Nc1ccccc1C: inactive
- OC1(c2ccccc2)CCNCC1: inactive
- C=CCc1ccccc1OCC(O)CNC(C)C (centres undefined): inactive
- O=C=Nc1ccc(Cl)c(Cl)c1: inactive
- CC(C)=CCC1C(=O)N(c2ccccc2)N(c2ccccc2)C1=O: inactive
- CCOc1cccc(-n2cc(C(=O)N3CCN(c4cc(C(=O)O)c5ccccc5c4)CC3)nc2-c2ccc(C)cc2)c1: inactive
- COC(=O)[C@H]1[C@H]2C[C@@H]3c4[nH]c5cc(OC)ccc5c4CCN3C[C@H]2C[C@@H](OC(=O)/C=C/c2ccc(O)c(OC)c2)[C@@H]1OC: inactive
- CC(C)C=O: inactive
- Cc1ccc2c(Br)cc(Br)c(O)c2n1: inactive

* * *

Test: qHTS assay to identify small molecule phospholipidosis (PLD) inducers (AID 1259344); note: % is set by controls: 0 for no effect and ±100 for the full control effect
Details: HepG2 phospholipidosis, LipidTOX Red imaging, 24 h; series mostly up to 38.3 µM
Records with an inconclusive call do not appear. The source made the active and inactive calls. The call rests on the fitted dose curve; in most records, active means well fitted activation curve with a large enough effect; inconclusive means small, poorly fitted or top-dose-only effect; inactive means flat fitted curve, though single readings scatter.
METRIC: PLD induction

• CC1(C)S[C@@H]2[C@H](NC(=O)C(c3ccccc3)S(=O)(=O)O)C(=O)N2[C@H]1C(=O)O (stereo not given in full) = inactive
• COc1cc(C(=O)NCCCCCC(=O)O)cc(OC)c1OC = inactive
• CC(C)COCC(CN(Cc1ccccc1)c1ccccc1)N1CCCC1 (stereo not given) = inactive
• C[C@@]12CCC[C@H]1[C@@H]1CC[C@H]3C[C@@H](O)CC[C@]3(C)[C@H]1CC2 = 17.2% [at 7.66 µM] (inactive)
• O=C(Cn1ccnc1[N+](=O)[O-])NCCO = inactive

* * *

Assay: qHTS assay to identify small molecule agonists of the sonic hedgehog signaling (Shh) pathway (AID 1259368);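 note: NIH/3T3-derived 3T3Gli1-Luc cells carrying a stable Gli1-driven firefly luciferase reporter; % is set by controls: 0 for no effect and ±100 for the full control effect; nearly all actives have a fitted effect of over 15% in size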
Settings: NIH/3T3 Gli1-Luc reporter, luciferase, 24 h; series mostly up to 92.4 µM
The source made the active and inactive calls. Calls come from the whole dose curve.
METRIC: outcome

• CCCCCC[C@@H](O)C/C=C\CCCCCCCC(=O)OCC(O)CO (some centres undefined) = inactive
• CCC(=O)OC = inactive
• CC(O)c1ccccc1 (centres undefined) = inactive
• O=c1cc(-c2ccccc2)oc2cc(O)cc(O)c12 = inactive
• CC(=O)N/N=C/c1ccc([N+](=O)[O-])o1 = inactive
• O=[N+]([O-])c1ccc(O/N=C/c2cc(Br)c(O)c(Br)c2)c([N+](=O)[O-])c1 = inactive
• CCOC(=O)C1=C(C)NC(C)=C(C(=O)OC)C1c1cccc(Cl)c1Cl (centres undefined) = inactive
• CN1C(=O)c2ccccc2C1=O = inactive
• CCOC(=O)c1ccc(I)cc1 = inactive
• Cc1cc(C)cc(N)c1 = inactive
• C=Cc1ccc(S(=O)(=O)O)cc1 = inactive
• CCCC(C(=O)OCCN(CC)CC)(c1ccccc1)c1ccccc1 = inactive
• C(=C\c1ccccc1)/c1ccccc1 = inactive
• O[C@@H]1CO[C@H]2[C@@H]1OC[C@@H]2O = inactive

* * *

Experiment: qHTS RealTime-Glo MT Cell Viability Assay in HEK293 cells - 32 hour (AID 1224868); note: nearly all actives have a fitted effect of over 50% in size
Details: RealTime-Glo luminescence; series mostly up to 76.8 µM
Records with an inconclusive call do not appear. Calls of active or inactive are those of the source. Calls follow the shape of the dose curve; as a rule, active = well fitted cell-killing curve with a large enough effect in the repeat runs; inconclusive = weak or mixed curves, or effect the other way; inactive = flat fitted curve, though single readings scatter.
Possible outcomes: Y = active, N = inactive

- CC1=C(Br)C(=O)C(Br)=C/C1=C(/c1ccccc1S(=O)(=O)O)c1cc(Br)c(O)c(Br)c1C: N
- OCCOCC#CCOCCO: N
- CO[C@]1(NC(=O)CSC(F)F)C(=O)N2C(C(=O)O)=C(CSc3nnnn3CCO)CO[C@H]21: N
- CC(=O)OCC[N+](C)(C)C: N
- N#CCCN(CCO)CCO: N
- O=C1c2ccccc2C(=O)N1CCc1noc(-c2ccc(CN3CCCCCC3)s2)n1: Y

* * *

Assay: A CellTox Green Cytotoxicity Assay to monitor cytotoxicity in HepG2 cells - 8 hour (AID 1224890); note: nearly all actives have a fitted effect of over 45% in size
Settings: CellTox Green fluorescence; series mostly up to 76.8 µM
Records with an inconclusive call do not appear. Active and inactive are the calls of the source. Calls follow the shape of the dose curve; as a rule, active = well fitted activation curve with a large enough effect in the repeat runs; inconclusive = weak or mixed curves; inactive = flat fitted curve, though single readings scatter.
Outcome codes: y (active), n (inactive)

- Oc1cc2c(cc1O)[C@H]1c3ccc(O)c(O)c3OC[C@@]1(O)C2: n
- CC1(C)S[C@@H]2[C@H](NC(=O)C(c3ccccc3)S(=O)(=O)O)C(=O)N2[C@H]1C(=O)O (some centres not stated): n
- Oc1c(I)cc(I)c2cccnc12: n
- CCOc1ccccc1O[C@H](c1ccccc1)[C@H]1CNCCO1: n
- Cc1cc(O)ccc1O: n
- CC(=O)Nc1cc(S(=O)(=O)O)cc2cc(S(=O)(=O)O)c(N=Nc3ccccc3)c(O)c12: n
- CS(=O)(=O)c1ccc(-c2cn3ccccc3n2)cc1: n
- Oc1ccc(Cl)c2cccnc12: n
- CCC(=O)C1CC(C(C)C)CC=C1C (configuration not stated): n
- CCCCOc1ccc(OCCCN2CCOCC2)cc1: n
- O=C(O)CCC(=O)C(=O)O: n
- CCCCCCCCOc1ccc(C(=O)O)cc1: n
- CC[C@]1(O)C[C@H]2CN(CCc3c([nH]c4ccccc34)[C@@](C(=O)OC)(c3cc4c(cc3OC)N(C=O)[C@H]3[C@@](O)(C(=O)OC)[C@H](OC(C)=O)[C@]5(CC)C=CCN6CC[C@]43[C@@H]65)C2)C1: n
- CC1(C)O[C@@H]2C[C@H]3[C@@H]4C[C@H](F)C5=CC(=O)C=C[C@]5(C)[C@H]4[C@@H](O)C[C@]3(C)[C@]2(C(=O)CO)O1: n
- CCCCCCCCN: n
- CCC=CC#N: n
- CC(CCC(=O)O)C(=O)O (configuration not stated): n
- O[C@@H]1CO[C@H]2[C@@H]1OC[C@@H]2O: n
- Cc1ccc(OC(=O)c2ccccc2O)cc1: n
- CC(C)COCC(CN(Cc1ccccc1)c1ccccc1)N1CCCC1 (configuration not stated): y
- Cc1ccc(Cl)c(Nc2ccccc2C(=O)O)c1Cl: n
- CC(C)=CC(=O)C=C(C)C: n
- CCOC(C)=O: n
- CCC(C)(C)OC: n
- FC(F)(F)c1ccccc1Cl: n
- OC1(c2ccccc2)CCNCC1: n
- O=c1cc(-c2ccccc2)oc2cc(O)cc(O)c12: n
- C=C(C)CCCC(C)CCO (configuration not stated): n
- CCCCCC[C@@H](O)C/C=C\CCCCCCCC(=O)O: n
- CCCCCCCC/C=C\CCCCCCCCCCCC(=O)O: n
- CC(C)C[C@H](NC(=O)[C@H](CCc1ccccc1)NC(=O)CN1CCOCC1)C(=O)N[C@@H](Cc1ccccc1)C(=O)N[C@@H](CC(C)C)C(=O)[C@@]1(C)CO1: n
- CCOC(=O)/C=C/C(=O)OCC: n
- CN1CCCN=C1COC(=O)C(O)(c1ccccc1)C1CCCCC1 (configuration not stated): n
- Cc1cccc(N(C)C(=S)Oc2ccc3c(c2)CCC3)c1: n
- CN1C(=O)c2ccccc2C1=O: n
- O=C(O)c1cccc(-c2noc(-c3ccccc3F)n2)c1: n
- C[C@]1(Cn2ccnn2)[C@H](C(=O)O)N2C(=O)C[C@H]2S1(=O)=O: n
